# TARGET_ENTITY: Aβ40 (Homo sapiens, UniProt P05067)
# Sequence (P05067 672-711, species assumed): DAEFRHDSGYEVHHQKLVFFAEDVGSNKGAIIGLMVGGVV
# METHOD_DESCRIPTION: ThT Aβ aggregation assay (kinetic Thioflavin T fluorescence)
# Assay type: biochemical
# RECORDED_CONDITIONS: compound 10 μM; 20 μM Aβ; DMSO control at 80 hr = 0% inhibition; number in parenthesis = compound ID 1027 in that experiment; read-out: % inhib Thioflavin T Aβ 40 10 μM
MEASURED_ATTRIBUTE: inhibition at 10 µM (%)

>>> data_value("OC(c1cc(-c2cc(N3CCC(N4CCCC4)CC3)c3nonc3c2)cs1)C(F)(F)F (centres unmarked) [compound 1463]")
61
>>> data_value("COCCN1CC=C(c2cc(N3CC(CN4CCCC4)C3)c3nonc3c2)CC1 [compound 1519]")
53
>>> data_value("OC(c1cc(N2CC(CN3CCCC3)C2)c2nonc2c1)C(F)(F)F (centres unmarked) [compound 1520]")
46
>>> data_value("CN(C)C(=O)c1ccc(-c2cc(N3CC(CN4CCCC4)C3)c3nonc3c2)cc1 [compound 1516]")
47
>>> data_value("FC(F)(F)c1ccc(-c2cc(N3CC(CN4CCCC4)C3)c3nonc3c2)cc1 [compound 1502]")
55

a = FC(F)(F)Oc1ccccc1-c1cc(N2CC(CN3CCCC3)C2)c2nonc2c1 [compound 1495]
b = c1cc(N2CC(CN3CCCC3)C2)c2nonc2c1 [compound 1473]
c = CC(=O)N1CCC=C(c2cc(N3CC(CN4CCCC4)C3)c3nonc3c2)C1 [compound 1521]
**Query** Reorder: inhibition at 10 µM, max to min. Hello, could you send the labels back in the order asked? Thank you.
**Result** a, b, c

a = c1ccc(Oc2ccccc2-c2cc(N3CC(CN4CCCC4)C3)c3nonc3c2)cc1 [compound 1504]
b = COc1ccc(-c2cc(N3CC(CN4CCCC4)C3)c3nonc3c2)cc1Cl [compound 1492]
c = Cc1cc(C)cc(-c2cc(N3CC(CN4CCCC4)C3)c3nonc3c2)c1 [compound 1506]
**Query** Task field, ranking: reported inhibition at 10 µM, descending order. Give the labels in the order requested.
**Result** a, c, b
(a: 72%, c: 44%, b: 22%)

A = CC(=O)N1C=C(c2cc(N3CC(CN4CCCC4)C3)c3nonc3c2)CCC1 [compound 1534]
B = CC(=O)N1CC=C(c2cc(N3CC(CN4CCCC4)C3)c3nonc3c2)CC1 [compound 1503]
**Query** Of the pair A and B , name the member with the lesser recorded inhibition at 10 µM. Reply briefly: the label of your chosen item.
**Result** B
(B: 33%, A: 67%)

====

# TARGET_ENTITY: Aβ40 (Homo sapiens, UniProt P05067)
# METHOD_DESCRIPTION: ThT Aβ aggregation assay (kinetic Thioflavin T fluorescence)
# Assay type: biochemical
# RECORDED_CONDITIONS: compound 10 μM; 20 μM Aβ; DMSO control at 80 hr = 0% inhibition; number in parenthesis = compound ID 1027 in that experiment; read-out: % inhib Thioflavin T Aβ 40 10 μM
MEASURED_ATTRIBUTE: inhibition at 10 µM (%)

>>> data_value("CN(C)C(=O)c1cccc(-c2cc(N3CC(CN4CCCC4)C3)c3nonc3c2)c1")
45
>>> data_value("CS(=O)(=O)N1C=C(c2cc(N3CC(CN4CCCC4)C3)c3nonc3c2)CCC1")
35
>>> data_value("CC(=O)c1ccc(-c2cc(N3CC(CN4CCCC4)C3)c3nonc3c2)cc1")
77

P = OC(c1ccccc1-c1cc(N2CC(CN3CCOCC3)C2)c2nonc2c1)C(F)(F)F (stereo not drawn)
Q = c1cc(-c2cc(N3CC(CN4CCCC4)C3)c3nonc3c2)cs1
**Query** Decide: P or Q , by lowest recorded inhibition at 10 µM. Your answer should be the label attached to the chosen record.
**Result** P
(P: 29%, Q: 71%)

====

# TARGET_ENTITY: UniProt P05067
# METHOD_DESCRIPTION: ThT Aβ aggregation assay (kinetic Thioflavin T fluorescence)
# Format: biochemical
# RECORDED_CONDITIONS: 80 h, compound 5 μm (so in the source); 20 μM Aβ; DMSO control at 80 hr = 0% inhibition; number in parenthesis = compound ID 1027 in that experiment; read-out: % inhib Thioflavin T Aβ 40 (5 μm)
# Experimental: Preparation of Aβ40 Stock Solutions Aβ40 (1.0 mg) was pre-treated in a 1.5 mL microfuge tube with HFIP (1 mL) and sonicated for 20 min to disassemble any pre-formed Aβ aggregates. […] The kinetic ThT assay for Aβ aggregation is similar to that of Chalifour et al (Chalifour et al, 2003, J. Biol. Chem. 278:34874-81). […] Plates were covered with clear polystyrene lids and incubated at 37° C. in a Tecan Genios microplate reader. […]
MEASURED_ATTRIBUTE: inhibition at 5 µM (%)

Please review the entries below; each comes with its answer.
>>> data_value("OC(c1cc(-c2cc(N3CCC(N4CCCC4)CC3)c3nonc3c2)cs1)C(F)(F)F (centres unmarked) [compound 1463]")
37
>>> data_value("OC(c1ccc(-c2cc(N3CCC(N4CCCC4)CC3)c3nonc3c2)cc1)C(F)(F)F (centres unmarked) [compound 1468]")
44
>>> data_value("CN(CCCN1CCCC1)c1cc(-c2cccc(C(O)C(F)(F)F)c2)cc2nonc12 (centres unmarked) [compound 1469]")
70
>>> data_value("CN(C)C1CCN(c2cc(-c3cccc(C(O)C(F)(F)F)c3)cc3nonc23)CC1 (centres unmarked) [compound 1466]")
37
>>> data_value("OC(c1ccc(-c2cc(N3CC(CN4CCCC4)C3)c3nonc3c2)s1)C(F)(F)F (centres unmarked) [compound 1543]")
63

A = CN(C)C(=O)c1ccccc1-c1cc(N2CC(CN3CCCC3)C2)c2nonc2c1 [compound 1542]
B = CN(C)CCCN(C)c1cc(-c2cccc(C(O)C(F)(F)F)c2)cc2nonc12 (centres unmarked) [compound 1465]
**Query** inhibition at 5 µM comparison. Which is larger, A or B ? Refer to your chosen entry by its label in the reply.
**Result** B

a = OC(c1cc(-c2cc(N3CC(CN4CCCC4)C3)c3nonc3c2)cs1)C(F)(F)F (centres unmarked) [compound 1535]
b = O=C(NC1CC1)c1cc(N2CC(CN3CCCC3)C2)c2nonc2c1 [compound 1541]
c = Cn1nccc1-c1cc(N2CC(CN3CCCC3)C2)c2nonc2c1 [compound 1536]
d = OC(c1ccccc1-c1cc(N2CCC(N3CCCC3)CC2)c2nonc2c1)C(F)(F)F (centres unmarked) [compound 1467]
**Query** Order the 4 compounds from highest to lowest inhibition at 5 µM. Please list the labels in the order you were asked to rank them.
**Result** a, c, d, b

====

# TARGET_ENTITY: Terminally biotinylated beta-amyloid (Aβ42) (Homo sapiens)
# Sequence (P05067 672-713, species assumed): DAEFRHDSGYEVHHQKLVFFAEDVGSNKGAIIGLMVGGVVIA
pIC50: −log10 of the molar value.
MEASURED_ATTRIBUTE: pIC50

These recorded examples may help you get a feel for the data.
>>> data_value("O=C(c1cc(N2CC(CN3CCCC3)C2)c2nonc2c1)N1CCCCC1 [compound 1552]")
5.24
>>> data_value("c1cc(N2CC(CN3CCCC3)C2)c2nonc2c1 [compound 1473]")
4.74
>>> data_value("CC(=O)NC1CCN(c2cc(-c3ccc(C4(O)COC4)cc3)cc3nonc23)CC1 [compound 1735]")
5.62
>>> data_value("N#Cc1cccc(-c2cc(N3CC(CN4CCCC4)C3)c3nonc3c2)c1 [compound 1493]")
4.89
>>> data_value("OC(c1cc(-c2cc(N3CC(CN4CCOCC4)C3)c3nonc3c2)cs1)C(F)(F)F (centres unmarked) [compound 1568]")
5.26
>>> data_value("FC(F)(F)Oc1ccccc1-c1cc(N2CC(CN3CCCC3)C2)c2nonc2c1 [compound 1495]")
5.23

1 = COc1cc(-c2cc(N3CC(CN4CCOCC4)C3)c3nonc3c2)ccn1 [compound 1659]
2 = Clc1cc(Cl)cc(-c2cc(N3CC(CN4CCCC4)C3)c3nonc3c2)c1 [compound 1478]
3 = c1ccc(Oc2ccccc2-c2cc(N3CC(CN4CCCC4)C3)c3nonc3c2)cc1 [compound 1504]
**Query** Rank entries according to their pIC50, from the largest number down. # answer = labels listed in requested order
**Result** 2, 3, 1
(2: 5.74, 3: 5.28, 1: 4.91)

A = OCc1ccc(-c2cc(N3CC(CN4CCOCC4)C3)c3nonc3c2)cc1 [compound 1592]
B = OC(c1cc(-c2cc(N3CC(CN4CCCC4)C3)c3nonc3c2)cs1)C(F)(F)F (centres unmarked) [compound 1537]
C = COC(c1cc(N2CC(CN3CCCC3)C2)c2nonc2c1)C(F)(F)F (centres unmarked) [compound 1539]
D = CC(C)(C)c1ccc(-c2cc(N3CC(CN4CCCC4)C3)c3nonc3c2)cc1 [compound 1487]
E = CC(C)(O)c1nc(-c2cc(N3CC(CN4CCOCC4)C3)c3nonc3c2)no1 [compound 1628]
**Query** Hey, can you sort those compounds up there by pIC50, smallest first? Give me the labels in the order the question wants.
**Result** E, A, C, B, D

P = N#Cc1ccc(-c2cc(N3CC(CN4CCOCC4)C3)c3nonc3c2)cc1 [compound 1574]
Q = OC(c1ccccc1-c1cc(N2CCC(N3CCCC3)CC2)c2nonc2c1)C(F)(F)F (centres unmarked) [compound 1467]
**Query** Lab notebook, comparison: P versus Q , higher pIC50 goes to which? Which one? Tell me its label.
**Result** Q
